Data provenance: patent US10799442B2

- Test system: human miRNA145
- ASSAY SUMMARY: miRNA145 inhibition on Human Keratinocyte HaCaT cell line, direct quantification by luminescence
- Assay type: cell-based
- CONDITION INFO: HaCaT cells, 0.3 mg/ml, 24 hours, normalized with Snord48; mean of 3 experiments for DD14024, one experiment for the others
The star is where a group is joined. Palmitoyl = CCCCCCCCCCCCCCCC(=O)*; NHhexadecyl = CCCCCCCCCCCCCCCCN*; Myristoyl = CCCCCCCCCCCCCC(=O)*; NHHex = CCCCCCN*
Relative level of miRNA145 respect to basal control (%) vs 80%: at or above is yes (1), below is no (0).

Please review the following examples before continuing.
SUBSTANCE	DISCRETE LABEL
Palm-Gln-Glu-Met-Arg-Met-Gln-OH (Palmitoyl-QEMRMQ-OH) [DD15003]	no (0)
Ac-Glu-Glu-Ile-Arg-Met-Gln-NHC16H33 (Ac-EEIRMQ-NHhexadecyl; SMILES CCCCCCCCCCCCCCCCNC(=O)[C@H](CCC(N)=O)NC(=O)[C@H](CCSC)NC(=O)[C@H](CCCNC(=N)N)NC(=O)[C@@H](NC(=O)[C@H](CCC(=O)O)NC(=O)[C@H](CCC(=O)O)NC(C)=O)[C@@H](C)CC) [DD15023]	no (0)
Ac-Ser-Gln-Glu-Met-Arg-Met-Gln-Thr-NH2 (Ac-SQEMRMQT-NH2) [DD15050]	no (0)
Myr-Glu-Glu-Met-Arg-Met-Gln-OH (Myristoyl-EEMRMQ-OH; SMILES CCCCCCCCCCCCCC(=O)N[C@@H](CCC(=O)O)C(=O)N[C@@H](CCC(=O)O)C(=O)N[C@@H](CCSC)C(=O)N[C@@H](CCCNC(=N)N)C(=O)N[C@@H](CCSC)C(=O)N[C@@H](CCC(N)=O)C(=O)O) [DD15011]	no (0)
Ac-Gln-Asp-Met-Arg-Met-Gln-NHC6H13 (Ac-QDMRMQ-NHHex; SMILES CCCCCCNC(=O)[C@H](CCC(N)=O)NC(=O)[C@H](CCSC)NC(=O)[C@H](CCCNC(=N)N)NC(=O)[C@H](CCSC)NC(=O)[C@H](CC(=O)O)NC(=O)[C@H](CCC(N)=O)NC(C)=O) [DD15013]	yes (1)

q: Threshold query (Relative level of miRNA145 respect to basal control (%) >= 80%) on Myr-Gln-Glu-Met-Arg-Met-Gln-NH2 (Myristoyl-QEMRMQ-NH2) [DD15052]
a: yes (1)

q: Threshold query (Relative level of miRNA145 respect to basal control (%) >= 80%) on Ac-Gln-Glu-Met-Arg-Met-Asn-OH (Ac-QEMRMN-OH) [DD15056]
a: no (0)
